Target sequence: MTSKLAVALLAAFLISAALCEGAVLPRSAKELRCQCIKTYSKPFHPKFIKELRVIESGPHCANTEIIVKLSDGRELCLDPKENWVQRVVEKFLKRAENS
Where a SMILES comes first, the peptide text is derived from it. [ ]: non-standard residue; d: D form. 12Ado = NCCCCCCCCCCCC(=O)O
QUANTITY: Ki (µM)
Answers are plain numbers, in µM.

Task: Look at this compound and give its reported Ki. CSCC[C@H](NC(C)=O)C(=O)N[C@@H](Cc1c[nH]c2ccccc12)C(=O)N[C@@H](CC(=O)O)C(=O)N[C@@H](Cc1ccccc1)C(=O)N[C@@H](CC(=O)O)C(=O)N[C@@H](CC(=O)O)C(=O)NCCCCCCCCCCCC(=O)N[C@@H](CCSC)C(=O)N1CCC[C@H]1C(=O)N1CCC[C@H]1C(=O)N[C@@H](C)C(=O)N[C@@H](CC(=O)O)C(=O)N[C@@H](CCC(=O)O)C(=O)N[C@@H](CC(=O)O)C(=O)N[C@@H](Cc1ccc(O)cc1)C(=O)N[C@@H](CO)C(=O)N1CCC[C@H]1C(N)=O (Ac-MWDFDD[12Ado]MPPADEDYSP-NH2)
Output: 4

Reference source: ChEMBL document CHEMBL1129841
